- Test system: T-47D breast
- method summary: NCI-60 one-dose screen, 48 h
- test context: 10 µM
- Method: Growth inhibition of the T-47D human tumor cell line is measured as a screen for anti-cancer activity. Cells are grown in 96 well plates and exposed to the test compound for 48 hours. Compounds are tested at a single concentration, which is 10^-5 M for most compounds. The reported endpoint is percent growth (GI% or GIPRCNT), where numbers from 0 - 100% represent growth inhibition, and numbers from -100% - 0 represent cell death. For example, a value of 40 represents 60% growth inhibition. […]
About 83,000 compounds went through this panel and 20% of them were active in at least one assay; those are over-represented in the sample as a whole. The source made the active and inactive calls. The calls were made as follows: active = growth percent below 10; inactive = the rest.
In this exercise, the only acceptable responses are active, inactive

How was CC[C@@]1(C(N)=O)CC2C=CC1C2 (stereo partly specified) classified in this test?
inactive

How was `O=[N+]([O-])c1ccc(-c2nc(-c3ccccc3)c(-c3ccccc3)n2-c2ccccc2)cc1` classified in this test?
inactive

How was COc1cc(C2C=C(c3ccc(Cl)c(Cl)c3)N=C3SC(C)=CN32)cc(OC)c1OC (stereo unspecified) classified in this test?
inactive

How was `Oc1[nH]c2ccccc2c1/C=c1/cc2c(c(-c3ccc(C(F)(F)F)cc3)n1)=Nc1ccccc1-2` classified in this test?
inactive

How was `COc1cc2c3c(cccc3c1)C(=O)N(CCN1CCCC1)C2=O` classified in this test?
inactive

How was `CCOc1ccc(-n2cc(-c3ccc(N(C)C)cc3)[n+]3c2CCCCC3)cc1` classified in this test?
active

How was `COC(=O)c1c(C)nc(Nc2nc3ccccc3s2)nc1-c1ccc(Cl)cc1Cl` classified in this test?
inactive

How was NC1CCC(Nc2nc(NCc3ccc(-c4ccco4)nc3)c3ncn(C4CCCC4)c3n2)CC1 (stereo unspecified) classified in this test?
active

How was `CCOC(=O)CSC(=S)SCC(=O)OCC` classified in this test?
inactive

How was `O=[N+]([O-])c1cc2ncccc2c2ncccc12` classified in this test?
inactive

How was CCCCN(CCCC)c1ccc(C(=NC(C)CCCN(CC)CC)c2ccc(N(C)C)cc2)cc1 (stereo unspecified) classified in this test?
active
